Where do these numbers come from? They come from patent EP0979653A1.

experiment: Measurement of DHAS concentration in plasma of patients with CFS given the injection intravenously; format: in vivo; conditions: human, iv, 100 mg, patient B, 100 mg intravenously daily for 14 days, 8 days, before administration
Where a name gives a salt, the structure may show the parent alone.
READOUT_LABEL: concentration at 192 h
Include the unit right after the number.

Look at this compound and give its reported concentration at 192 h. C[C@]12CC[C@H](OS(=O)(=O)O)CC1=CC[C@@H]1[C@@H]2CC[C@]2(C)C(=O)CC[C@@H]12 [Sodium salt of DHAS, dehydroepiandrosterone sulfate]
2050 ng/mL

---

Experiment: Measurement of DHAS concentration in plasma of patients with CFS given the injection intravenously
Assay type: in vivo
Details: human, iv, 100 mg, patient B, 100 mg intravenously daily for 14 days, 1 day, 13 hours after administration
Protocol: An injection containing 100 mg of a test compound was intravenously administered to two patients with CFS (A, B), continuously, for 14 days. The measurement of DHAS concentration in plasma was conducted before administration and 13 hours after administration with respect to the first and second days, while the measurement was conducted before administration with regard to the third, fifth, eighth, eleventh and fourteenth days. […]
Where a name gives a salt, the structure may show the parent alone.
READOUT_LABEL: concentration at 13 h (ng/mL)
Numbers only, in ng/mL.

Look at this molecule and give its reported concentration at 13 h. C[C@]12CC[C@H](OS(=O)(=O)O)CC1=CC[C@@H]1[C@@H]2CC[C@]2(C)C(=O)CC[C@@H]12 [Sodium salt of DHAS, dehydroepiandrosterone sulfate]
8900

---

experiment: Measurement of DHAS concentration in plasma of patients with CFS given the injection intravenously; type: in vivo; conditions: human, iv, 100 mg, patient A, 100 mg intravenously daily for 14 days, 11 days, before administration
Counter-ions that a name gives are not always drawn.
READOUT_LABEL: concentration at 264 h (ng/mL)
Numbers only, in ng/mL.

Look at this molecule and give its reported concentration at 264 h. C[C@]12CC[C@H](OS(=O)(=O)O)CC1=CC[C@@H]1[C@@H]2CC[C@]2(C)C(=O)CC[C@@H]12 [Sodium salt of DHAS, dehydroepiandrosterone sulfate]
2110

---

assay: Measurement of DHAS concentration in plasma of patients with CFS given the injection intravenously; type: in vivo; conditions: human, iv, 100 mg, patient A, 100 mg intravenously daily for 14 days, 2 days, before administration
Counter-ions that a name gives are not always drawn.
READOUT_LABEL: concentration at 48 h (µg/mL)
Answers are plain numbers, in µg/mL.

Look at this compound and give its reported concentration at 48 h. C[C@]12CC[C@H](OS(=O)(=O)O)CC1=CC[C@@H]1[C@@H]2CC[C@]2(C)C(=O)CC[C@@H]12 [Sodium salt of DHAS, dehydroepiandrosterone sulfate]
2.46

---

Test: Measurement of DHAS concentration in plasma of patients with CFS given the injection intravenously
Format: in vivo
Conditions: human, iv, 100 mg, patient A, 100 mg intravenously daily for 14 days, 2 days, 13 hours after administration
Procedure: An injection containing 100 mg of a test compound was intravenously administered to two patients with CFS (A, B), continuously, for 14 days. The measurement of DHAS concentration in plasma was conducted before administration and 13 hours after administration with respect to the first and second days, while the measurement was conducted before administration with regard to the third, fifth, eighth, eleventh and fourteenth days. […]
Structures can show the parent of a compound that is named as a salt.
READOUT_LABEL: concentration at 13 h (ng/mL)
Numbers only, in ng/mL.

Look at this compound and give its reported concentration at 13 h. C[C@]12CC[C@H](OS(=O)(=O)O)CC1=CC[C@@H]1[C@@H]2CC[C@]2(C)C(=O)CC[C@@H]12 [Sodium salt of DHAS, dehydroepiandrosterone sulfate]
6340
